Reference source: patent US20200079833A1

biological target: GLP-1 receptor (human, UniProt P43220 24-463); test: cell-based or functional assay
Starred links: 1 amine or outer side, 2 acyl side, 3 side chain; linkers in the order of their positions; H or OH if unused. Non-standard residues stand in square brackets, D forms with d. Groups on a side chain read outwards from the residue. Primed or numbered codes have the meaning given here. No end group written: not given here. *: point of attachment. γGlu = O=C(O)[C@H](CCC(=O)[*:2])N[*:1]; Stearoyl = CCCCCCCCCCCCCCCCCC(=O)*; αMeF = C[C@](N)(Cc1ccccc1)C(=O)O; PEG2′ = not defined here; Aib = CC(C)(N)C(=O)O
attribute_measured: Primary assay EC50 (cAMP), n2 (pM)

a = H[Aib]EGS[αMeF]TSDVSK([PEG2′-PEG2′-γGlu-Stearoyl])YLEGEAAKE[αMeF]IA[αMeF]VVEGG-NH2 [SEQ ID NO 57]
b = H[Aib]EGS[αMeF]TSDVSS[αMeF]LEGEAAK([PEG2′-PEG2′-γGlu-Stearoyl])E[αMeF]IA[αMeF]VVKGG-NH2 [SEQ ID NO 40]
c = H[Aib]EGS[αMeF]TSDVSK([PEG2′-PEG2′-PEG2′-Stearoyl])YLEGEAAKE[αMeF]IA[αMeF]VVEGG-NH2 [SEQ ID NO 61]
Ask: Could you list the above binders by Primary assay EC50 (cAMP), n2, going from the biggest number down? Answer by listing the labels in the order asked for.
Result: b, a, c
